target: DAPK3 (human); assay: KINOMEscan competition binding; settings: compound 10.0 µM
Measured property: kinase still bound, per cent of control (%)
Write it as a number; the unit % goes unstated.

- Sample smiles: "COc1cc2ncn(-c3cc(OCc4ccccc4C(F)(F)F)c(C(N)=O)s3)c2cc1OC"
  Display unit: "%"
  kinase still bound, per cent of control: 19
- Sample smiles: "CCN1CCN(C(=O)Cc2ccc(Nc3ncc(F)c(Nc4ccc(C(=O)Nc5ccccc5Cl)cc4)n3)cc2)CC1"
  Display unit: "%"
  kinase still bound, per cent of control: 5.2
- Sample smiles: "CCN(CC)CCCCNc1ncc2c(n1)N(C)C(=O)N(c1c(Cl)c(OC)cc(OC)c1Cl)C2"
  Display unit: "%"
  kinase still bound, per cent of control: 100
- Sample smiles: "Cc1n[nH]c2ccc(-c3cncc(OC[C@@H](N)Cc4c[nH]c5ccccc45)c3)cc12"
  Display unit: "%"
  kinase still bound, per cent of control: 2.3

Continue with the next compound.
# query: kinase still bound, per cent of control of entry CNC(=O)c1cc(Oc2ccc(NC(=O)Nc3ccc(Cl)c(C(F)(F)F)c3)cc2)ccn1
88

* * *

# kinase still bound, per cent of control values compiled below
target: DYRK1B (human) (UniProt Q9Y463); assay: KINOMEscan competition binding; details: compound 10.0 µM
Sequence (Q9Y463 whole entry, looked up): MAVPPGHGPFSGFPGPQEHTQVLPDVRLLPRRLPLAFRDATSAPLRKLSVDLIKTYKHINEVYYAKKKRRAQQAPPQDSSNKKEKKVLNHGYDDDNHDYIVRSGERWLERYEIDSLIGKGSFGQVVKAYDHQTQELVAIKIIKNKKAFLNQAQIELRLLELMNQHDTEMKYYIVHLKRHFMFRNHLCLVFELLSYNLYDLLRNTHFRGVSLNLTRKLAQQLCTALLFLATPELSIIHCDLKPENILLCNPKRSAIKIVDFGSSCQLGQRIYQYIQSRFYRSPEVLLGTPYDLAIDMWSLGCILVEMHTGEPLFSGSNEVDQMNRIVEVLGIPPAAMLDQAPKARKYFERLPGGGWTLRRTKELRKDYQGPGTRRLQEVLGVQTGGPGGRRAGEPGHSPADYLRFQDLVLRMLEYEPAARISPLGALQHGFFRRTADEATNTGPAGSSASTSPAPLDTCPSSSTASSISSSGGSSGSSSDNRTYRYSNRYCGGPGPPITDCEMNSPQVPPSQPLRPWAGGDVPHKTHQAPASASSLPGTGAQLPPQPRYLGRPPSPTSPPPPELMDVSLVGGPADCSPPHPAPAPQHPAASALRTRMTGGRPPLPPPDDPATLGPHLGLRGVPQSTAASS

- Sample smiles: "COc1cc2ncnc(-n3nc(-c4ccccn4)nc3N)c2cc1OC"
  Measured property: "kinase still bound, per cent of control"
  Result: "2%"

# query: kinase still bound, per cent of control of entry C=CC(=O)Nc1ccc(CN(C(=O)Nc2c(Cl)c(OC)cc(OC)c2Cl)c2cc(Nc3ccc(N4CCN(C)CC4)cc3)ncn2)cc1
100%

# query: kinase still bound, per cent of control of entry C=CC(=O)Nc1cc(-n2c(=O)ccc3cnc4ccc(-c5cn[nH]c5)cc4c32)ccc1C
1.8%

# query: kinase still bound, per cent of control of entry COc1cc(C(=O)N2CCC(N3CCN(C)CC3)CC2)ccc1Nc1ncc2c(n1)N(C)c1ccccc1C(=O)N2C
94%

* * *

biological target: LATS2 (human); assay: KINOMEscan competition binding; settings: compound 10.0 µM
Measured property: kinase still bound, per cent of control (%)
Write it as a number; the unit % goes unstated.

Some solved entries appear below for comparison.
- Sample smiles: "COc1cc2ncnc(-n3nc(-c4ccccn4)nc3N)c2cc1OC"
  Tgt: "LATS2 (human)"
  kinase still bound, per cent of control, %: 11
- Sample smiles: "COCC(=O)NC/C=C/c1ccc2ncnc(Nc3ccc(Oc4ccc(C)nc4)c(C)c3)c2c1"
  Tgt: "LATS2 (human)"
  kinase still bound, per cent of control, %: 100
- Sample smiles: "CCN(CC)CCCCNc1ncc2c(n1)N(C)C(=O)N(c1c(Cl)c(OC)cc(OC)c1Cl)C2"
  Tgt: "LATS2 (human)"
  kinase still bound, per cent of control, %: 100
- Sample smiles: "NC(=O)Nc1cc(-c2cccc(F)c2)sc1C(=O)N[C@@H]1CCCNC1"
  Tgt: "LATS2 (human)"
  kinase still bound, per cent of control, %: 2
- Sample smiles: "Cc1n[nH]c2ccc(-c3cncc(OC[C@@H](N)Cc4c[nH]c5ccccc45)c3)cc12"
  Tgt: "LATS2 (human)"
  kinase still bound, per cent of control, %: 0

# query: kinase still bound, per cent of control of entry CNC(=O)c1cc(Oc2ccc(NC(=O)Nc3ccc(Cl)c(C(F)(F)F)c3)cc2)ccn1
85

# query: kinase still bound, per cent of control of entry N#CCNC(=O)c1ccc(-c2ccnc(Nc3ccc(N4CCOCC4)cc3)n2)cc1
74

# query: kinase still bound, per cent of control of entry O=C1NC(=O)/C(=C/c2ccc3nccc(-c4ccncc4)c3c2)S1
100

# query: kinase still bound, per cent of control of entry C=CC(=O)Nc1cc(-n2c(=O)ccc3cnc4ccc(-c5cn[nH]c5)cc4c32)ccc1C
53

# query: kinase still bound, per cent of control of entry O=C(Nc1cccc(Nc2ncc(Br)c(NCCc3cnc[nH]3)n2)c1)N1CCCC1
0

# query: kinase still bound, per cent of control of entry CS(=O)(=O)N1CCN(Cc2cc3nc(-c4cccc5[nH]ncc45)nc(N4CCOCC4)c3s2)CC1
100

# query: kinase still bound, per cent of control of entry COc1ccc(N(C(=O)Oc2c(C)cccc2C)c2ccnc(Nc3ccc(N4CCN(C)CC4)cc3)n2)c(OC)c1
70

# query: kinase still bound, per cent of control of entry CCN(CC)CCCCNc1ncc2cc(-c3cc(OC)cc(OC)c3)c(NC(=O)NC(C)(C)C)nc2n1
100

# query: kinase still bound, per cent of control of entry COc1cc(C(=O)N2CCC(N3CCN(C)CC3)CC2)ccc1Nc1ncc2c(n1)N(C)c1ccccc1C(=O)N2C
95

# query: kinase still bound, per cent of control of entry COc1cc(N2CCN(C)CC2)ccc1Nc1ncc2c(n1)N(C)c1ccccc1C(=O)N2C
100

# query: kinase still bound, per cent of control of entry COc1cc2ncn(-c3cc(OCc4ccccc4C(F)(F)F)c(C(N)=O)s3)c2cc1OC
50

# query: kinase still bound, per cent of control of entry CNC(=O)c1ccc(Nc2cc(Nc3ccccc3S(=O)(=O)C(C)C)c3cc[nH]c3n2)nc1
100

# query: kinase still bound, per cent of control of entry O=c1cc(N2CCOCC2)oc2c(-c3cccc4c3sc3ccccc34)cccc12
100

* * *

# kinase still bound, per cent of control values compiled below
molecular target: MET (human); experiment: KINOMEscan competition binding; details: compound 10.0 µM
Write it as a number; the unit % goes unstated.

Some solved entries appear below for comparison.
- Sample smiles: "CNC(=O)c1ccc(Nc2cc(Nc3ccccc3S(=O)(=O)C(C)C)c3cc[nH]c3n2)nc1"
  kinase still bound, per cent of control [%]: 1
- Sample smiles: "O=C(Nc1cccc(Nc2ncc(Br)c(NCCc3cnc[nH]3)n2)c1)N1CCCC1"
  kinase still bound, per cent of control [%]: 4.4
- Sample smiles: "O=c1cc(N2CCOCC2)oc2c(-c3cccc4c3sc3ccccc34)cccc12"
  kinase still bound, per cent of control [%]: 63
- Sample smiles: "COc1cc2ncn(-c3cc(OCc4ccccc4C(F)(F)F)c(C(N)=O)s3)c2cc1OC"
  kinase still bound, per cent of control [%]: 15
- Sample smiles: "CN(C)C/C=C/C(=O)Nc1ccc(C(=O)Nc2cccc(Nc3nccc(-c4cccnc4)n3)c2)cc1"
  kinase still bound, per cent of control [%]: 100
- Sample smiles: "COc1ccc(N(C(=O)Oc2c(C)cccc2C)c2ccnc(Nc3ccc(N4CCN(C)CC4)cc3)n2)c(OC)c1"
  kinase still bound, per cent of control [%]: 3.9

# query: kinase still bound, per cent of control of entry COCC(=O)NC/C=C/c1ccc2ncnc(Nc3ccc(Oc4ccc(C)nc4)c(C)c3)c2c1
74

# query: kinase still bound, per cent of control of entry Cc1n[nH]c2ccc(-c3cncc(OC[C@@H](N)Cc4c[nH]c5ccccc45)c3)cc12
100

# query: kinase still bound, per cent of control of entry O=C1NC(=O)/C(=C/c2ccc3nccc(-c4ccncc4)c3c2)S1
32

# query: kinase still bound, per cent of control of entry CS(=O)(=O)N1CCN(Cc2cc3nc(-c4cccc5[nH]ncc45)nc(N4CCOCC4)c3s2)CC1
100

# query: kinase still bound, per cent of control of entry C=CC(=O)Nc1ccc(CN(C(=O)Nc2c(Cl)c(OC)cc(OC)c2Cl)c2cc(Nc3ccc(N4CCN(C)CC4)cc3)ncn2)cc1
100

# query: kinase still bound, per cent of control of entry CCN(CC)CCCCNc1ncc2c(n1)N(C)C(=O)N(c1c(Cl)c(OC)cc(OC)c1Cl)C2
100

* * *

target: MYO3B (human) (UniProt Q8WXR4); experiment: KINOMEscan competition binding; conditions: compound 10.0 µM
Sequence (Q8WXR4 whole entry, looked up): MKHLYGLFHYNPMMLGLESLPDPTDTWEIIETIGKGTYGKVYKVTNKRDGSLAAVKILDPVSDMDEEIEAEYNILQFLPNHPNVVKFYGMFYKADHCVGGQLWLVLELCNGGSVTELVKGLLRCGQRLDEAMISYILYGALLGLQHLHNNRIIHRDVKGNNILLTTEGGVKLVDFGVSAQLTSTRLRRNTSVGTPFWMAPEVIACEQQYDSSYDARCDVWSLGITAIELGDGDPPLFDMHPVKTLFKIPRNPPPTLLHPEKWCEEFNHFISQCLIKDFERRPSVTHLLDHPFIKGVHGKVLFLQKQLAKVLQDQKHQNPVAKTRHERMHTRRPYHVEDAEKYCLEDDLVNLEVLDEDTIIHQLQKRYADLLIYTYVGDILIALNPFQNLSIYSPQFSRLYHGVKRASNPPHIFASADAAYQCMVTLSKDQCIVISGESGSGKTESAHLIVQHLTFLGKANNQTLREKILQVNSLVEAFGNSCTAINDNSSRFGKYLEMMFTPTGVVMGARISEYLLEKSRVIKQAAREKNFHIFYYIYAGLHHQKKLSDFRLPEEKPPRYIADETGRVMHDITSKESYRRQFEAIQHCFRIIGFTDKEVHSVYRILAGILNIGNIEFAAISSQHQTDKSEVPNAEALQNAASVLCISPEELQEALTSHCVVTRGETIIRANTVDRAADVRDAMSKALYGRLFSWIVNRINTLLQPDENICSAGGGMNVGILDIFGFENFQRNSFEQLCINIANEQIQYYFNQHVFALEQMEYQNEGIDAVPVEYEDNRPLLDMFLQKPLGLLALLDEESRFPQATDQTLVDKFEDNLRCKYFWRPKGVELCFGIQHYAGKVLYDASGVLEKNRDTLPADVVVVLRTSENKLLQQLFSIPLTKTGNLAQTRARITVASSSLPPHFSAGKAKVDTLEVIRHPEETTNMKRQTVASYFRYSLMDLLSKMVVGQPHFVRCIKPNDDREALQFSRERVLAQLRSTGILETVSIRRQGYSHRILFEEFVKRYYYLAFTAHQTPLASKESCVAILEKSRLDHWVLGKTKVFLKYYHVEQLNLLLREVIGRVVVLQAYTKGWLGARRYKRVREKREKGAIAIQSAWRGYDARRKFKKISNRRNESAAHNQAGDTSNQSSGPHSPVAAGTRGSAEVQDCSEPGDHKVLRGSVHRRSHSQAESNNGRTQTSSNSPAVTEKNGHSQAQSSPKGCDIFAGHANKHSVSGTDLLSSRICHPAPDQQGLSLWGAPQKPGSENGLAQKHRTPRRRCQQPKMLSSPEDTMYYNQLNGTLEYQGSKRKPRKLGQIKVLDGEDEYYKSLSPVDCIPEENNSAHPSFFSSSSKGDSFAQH
Measured property: kinase still bound, per cent of control (%)
Write it as a number; the unit % goes unstated.

Some solved entries appear below for comparison.
- Sample smiles: "C=CC(=O)Nc1cc(-n2c(=O)ccc3cnc4ccc(-c5cn[nH]c5)cc4c32)ccc1C"
  Number: 100
- Sample smiles: "COCC(=O)NC/C=C/c1ccc2ncnc(Nc3ccc(Oc4ccc(C)nc4)c(C)c3)c2c1"
  Number: 100
- Sample smiles: "O=C(Nc1cccc(Nc2ncc(Br)c(NCCc3cnc[nH]3)n2)c1)N1CCCC1"
  Number: 93
- Sample smiles: "N#CCNC(=O)c1ccc(-c2ccnc(Nc3ccc(N4CCOCC4)cc3)n2)cc1"
  Number: 100

Continue with the next molecule.
# query: kinase still bound, per cent of control of entry C=CC(=O)Nc1ccc(CN(C(=O)Nc2c(Cl)c(OC)cc(OC)c2Cl)c2cc(Nc3ccc(N4CCN(C)CC4)cc3)ncn2)cc1
100

* * *

# kinase still bound, per cent of control values compiled below
biological target: DMPK (human) (UniProt Q09013); experiment: KINOMEscan competition binding; conditions: compound 10.0 µM
Sequence (Q09013 whole entry, looked up): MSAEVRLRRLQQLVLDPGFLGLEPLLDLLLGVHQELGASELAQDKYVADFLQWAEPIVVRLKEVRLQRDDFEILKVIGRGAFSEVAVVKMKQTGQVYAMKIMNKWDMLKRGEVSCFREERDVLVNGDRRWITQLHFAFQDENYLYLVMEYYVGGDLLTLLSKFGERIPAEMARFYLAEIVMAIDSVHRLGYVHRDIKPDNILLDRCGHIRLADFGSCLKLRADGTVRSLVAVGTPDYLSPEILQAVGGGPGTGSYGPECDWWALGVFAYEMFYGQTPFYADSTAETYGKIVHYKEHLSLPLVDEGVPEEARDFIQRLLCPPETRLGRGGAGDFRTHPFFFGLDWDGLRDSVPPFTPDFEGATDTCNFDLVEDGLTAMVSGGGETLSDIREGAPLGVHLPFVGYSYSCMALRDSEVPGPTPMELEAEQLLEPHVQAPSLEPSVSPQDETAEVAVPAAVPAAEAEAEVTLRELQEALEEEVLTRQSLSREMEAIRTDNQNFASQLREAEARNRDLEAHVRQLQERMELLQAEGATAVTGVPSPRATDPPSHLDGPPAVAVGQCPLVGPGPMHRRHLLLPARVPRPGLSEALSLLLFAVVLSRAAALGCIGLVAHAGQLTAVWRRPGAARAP
Write it as a number; the unit % goes unstated.

# query: kinase still bound, per cent of control of entry COc1cc2ncn(-c3cc(OCc4ccccc4C(F)(F)F)c(C(N)=O)s3)c2cc1OC
98

# query: kinase still bound, per cent of control of entry C[C@@H](Oc1cc(-c2cnn(C3CCNCC3)c2)cnc1N)c1c(Cl)ccc(F)c1Cl
1.6

# query: kinase still bound, per cent of control of entry CCN(CC)CCCCNc1ncc2c(n1)N(C)C(=O)N(c1c(Cl)c(OC)cc(OC)c1Cl)C2
100

# query: kinase still bound, per cent of control of entry CCN(CC)CCCCNc1ncc2cc(-c3cc(OC)cc(OC)c3)c(NC(=O)NC(C)(C)C)nc2n1
100

# query: kinase still bound, per cent of control of entry COc1cc2ncnc(-n3nc(-c4ccccn4)nc3N)c2cc1OC
100

# query: kinase still bound, per cent of control of entry O=C(Nc1cccc(Nc2ncc(Br)c(NCCc3cnc[nH]3)n2)c1)N1CCCC1
9.1

# query: kinase still bound, per cent of control of entry COc1cc(C(=O)N2CCC(N3CCN(C)CC3)CC2)ccc1Nc1ncc2c(n1)N(C)c1ccccc1C(=O)N2C
100

# query: kinase still bound, per cent of control of entry COc1ccc(N(C(=O)Oc2c(C)cccc2C)c2ccnc(Nc3ccc(N4CCN(C)CC4)cc3)n2)c(OC)c1
0.05

# query: kinase still bound, per cent of control of entry CNC(=O)c1cc(Oc2ccc(NC(=O)Nc3ccc(Cl)c(C(F)(F)F)c3)cc2)ccn1
100
